Entry source: the supplement of paper PMC10567573

B1: SMG5 (parent)
chain: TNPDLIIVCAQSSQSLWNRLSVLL

- Variants of: B1
- Test name: protein stability index of a GFP-peptide fusion (GPS, HEK-293T) (PSI 1-6); higher = more stable;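 further: lentivirally expressed fusions sorted by FACS into six bins by GFP to DsRed ratio, PSI derived from sequencing read proportions per bin multiplied by bin number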
- Measurement parameters: c terminus: a fixed tail appended
Grouping by measured protein stability index is done with the following cut points: lower (below 2), middle (2 to below 3), upper (3 or more)

>>> label("N2M")
"middle"
>>> label("Q14P")
"middle"
>>> label("R19C")
"middle"
>>> label("V22I")
"upper"
>>> label("I6E")
"middle"
>>> label("N2Y")
"lower"
>>> label("L24Q")
"lower"
>>> label("A10V")
"upper"
>>> label("L20N")
"upper"
>>> label("L5K")
"middle"
>>> label("C9E")
"lower"
>>> label("L5D")
"lower"
>>> label("L23H")
"upper"
>>> label("W17A")
"upper"
>>> label("S15W")
"lower"
>>> label("D4C")
"lower"
>>> label("R19Y")
"lower"
>>> label("S13A")
"lower"
>>> label("V22H")
"lower"
>>> label("L24M")
"upper"
>>> label("V8N")
"lower"
>>> label("D4K")
"upper"
>>> label("I7Y")
"lower"
>>> label("I6L")
"middle"
>>> label("S21E")
"upper"
>>> label("Q11M")
"middle"
>>> label("L23F")
"middle"
>>> label("Q14G")
"middle"
>>> label("L16Q")
"middle"
>>> label("S12P")
"lower"
>>> label("I7Q")
"lower"
>>> label("Q11T")
"upper"
>>> label("I7M")
"lower"
>>> label("R19W")
"middle"
>>> label("R19G")
"upper"
>>> label("W17S")
"upper"
>>> label("P3Q")
"lower"
>>> label("D4H")
"upper"
>>> label("L16K")
"upper"
>>> label("R19H")
"middle"
>>> label("L24W")
"middle"
>>> label("I7S")
"lower"
>>> label("N2H")
"lower"
>>> label("S15F")
"upper"
>>> label("S15M")
"upper"
>>> label("S15G")
"middle"
>>> label("I7V")
"lower"
>>> label("S15A")
"middle"
>>> label("L24N")
"middle"
>>> label("L16W")
"lower"
>>> label("C9R")
"middle"
>>> label("I6C")
"lower"
>>> label("L5T")
"middle"
>>> label("N18Y")
"upper"
>>> label("V8D")
"middle"
>>> label("L5N")
"lower"
>>> label("L24F")
"middle"
>>> label("S15P")
"upper"
>>> label("D4M")
"upper"
>>> label("S13W")
"lower"
>>> label("Q11P")
"upper"
>>> label("L20C")
"middle"
>>> label("D4A")
"lower"
>>> label("S12F")
"upper"
>>> label("V22F")
"middle"
>>> label("L24A")
"middle"
>>> label("R19N")
"upper"
>>> label("S15E")
"middle"
>>> label("L20M")
"middle"
>>> label("P3S")
"middle"
>>> label("S15T")
"lower"
>>> label("S12K")
"lower"
>>> label("W17T")
"middle"
>>> label("S21G")
"upper"
>>> label("C9P")
"lower"
>>> label("N18C")
"middle"
>>> label("W17F")
"upper"
>>> label("L5I")
"middle"
>>> label("S15N")
"upper"
>>> label("P3V")
"upper"
>>> label("A10R")
"lower"
>>> label("S13K")
"middle"
>>> label("S15H")
"middle"
